Provenance of the data: paper PMC8839658

quantity_name: melting point

Q: Find the recorded melting point belonging to COc1ccc(Cc2nnc(-c3cccc(-c4ccnc(F)c4C)c3)o2)cc1 [compound 5r] and report it.
A: 94 to 96 °C

Q: Find the recorded melting point belonging to COc1ccc(Cc2nnc(-c3cccc(-c4cncnc4)c3)o2)cc1OC [compound 5h] and report it.
A: 98 to 100 °C

Q: Find the recorded melting point belonging to COc1ccc(Cc2nnc(-c3cccc(-c4cnc(F)c(C)c4)c3)o2)cc1OC [compound 5p] and report it.
A: 91 to 93 °C

Q: Find the recorded melting point belonging to Cc1c(-c2cccc(-c3nnc(-c4ccc5c(c4)OCCO5)o3)c2)ccnc1F [5t] and report it.
A: 128 to 130 °C

Q: Find the recorded melting point belonging to COc1ccc(Cc2nnc(-c3cccc(-c4cncnc4)c3)o2)cc1 [compound 5g] and report it.
A: 90 to 92 °C

Q: Find the recorded melting point belonging to FC(F)(F)c1ccc(-c2cccc(-c3nnc(-c4ccc5c(c4)OCCO5)o3)c2)cc1 [5b] and report it.
A: 160 to 162 °C

Q: Find the recorded melting point belonging to Cc1cc(-c2cccc(-c3nnc(-c4ccc5c(c4)OCCO5)o3)c2)cnc1F [5q] and report it.
A: 144 to 146 °C

====

Hi there, I'd appreciate the recorded melting point for every entry that follows.

Q: Find the recorded melting point belonging to c1cc(-c2nnc(-c3ccc4c(c3)OCCO4)o2)cc(-c2cccc3ccccc23)c1 and report it.
A: 156 to 158 °C

Q: Find the recorded melting point belonging to c1cncc(-c2cccc(-c3nnc(-c4ccc5c(c4)OCCO5)o3)c2)c1 and report it.
A: 138 to 140 °C

Q: Find the recorded melting point belonging to Cc1cncc(-c2cccc(-c3nnc(-c4ccc5c(c4)OCCO5)o3)c2)c1C and report it.
A: 198 to 200 °C

Q: Find the recorded melting point belonging to c1cc(-c2ccncc2)cc(-c2nnc(-c3ccc4c(c3)OCCO4)o2)c1 and report it.
A: 194 to 196 °C

Q: Find the recorded melting point belonging to COc1ccc(Cc2nnc(-c3cccc(-c4cncc(C)c4C)c3)o2)cc1OC and report it.
A: 90 to 92 °C

Q: Find the recorded melting point belonging to COc1ccc(Cc2nnc(-c3cccc(-c4cnc(F)c(C)c4)c3)o2)cc1 and report it.
A: 86 to 88 °C

Q: Find the recorded melting point belonging to c1cc(-c2cncnc2)cc(-c2nnc(-c3ccc4c(c3)OCCO4)o2)c1 and report it.
A: 190 to 192 °C

Q: Find the recorded melting point belonging to O=C(NC1CCCC1)c1cccc(-c2cccc(-c3nnc(-c4ccc5c(c4)OCCO5)o3)c2)c1 and report it.
A: 186 to 188 °C

Q: Find the recorded melting point belonging to COc1ccc(Cc2nnc(-c3cccc(-c4cccnc4)c3)o2)cc1OC and report it.
A: 78 to 80 °C

====

System: MCF-7 cells
Experiment: MCF-7 cell viability assay (Alamar Blue)
Format: cell-based, human
Conditions: MCF-7, 72 h, Alamar Blue; read-out: IC50, cell viability of MCF-7 cells
Procedure: Initially, the newly synthesized oxadiazoles were examined in cell viability studies in human breast cancer (MCF-7) cells using Alamar Blue assays. MCF-7 and MDA-MB-231 (2000) cells were cultured in MEM or Leibovitz’s L-15 medium enriched with 2% FBS and maintained in a humidified atmosphere of 5% CO2 at 37 °C [44]. […] The inhibitory effect of the compounds was assessed using Alamar Blue reagent. […]
quantity_name: pIC50
Please treat pIC50 as minus the base-10 logarithm of the molar concentration.

Q: Find the recorded pIC50 belonging to COc1ccc(Cc2nnc(-c3cccc(-c4cccc(C=O)c4)c3)o2)cc1 [compound 5u] and report it.
A: 5.85

Q: Find the recorded pIC50 belonging to COc1ccc(Cc2nnc(-c3cccc(-c4cccnc4)c3)o2)cc1OC and report it.
A: 4.57

Q: Find the recorded pIC50 belonging to COc1ccc(Cc2nnc(-c3cccc(-c4cccc(C=O)c4)c3)o2)cc1 [C00019] and report it.
A: 5.84

Q: Find the recorded pIC50 belonging to COc1ccc(Cc2nnc(-c3cccc(-c4cncnc4)c3)o2)cc1OC and report it.
A: 4.66

Q: Find the recorded pIC50 belonging to COc1ccc(Cc2nnc(-c3cccc(-c4ccc(C(C)=O)s4)c3)o2)cc1 and report it.
A: 4.64

Q: Find the recorded pIC50 belonging to COc1ccc(Cc2nnc(-c3cccc(-c4ccnc(F)c4C)c3)o2)cc1 and report it.
A: 4.60

Q: Find the recorded pIC50 belonging to COc1ccc(Cc2nnc(-c3cccc(-c4ccnc(F)c4C)c3)o2)cc1OC [C00015] and report it.
A: 4.81

Q: Find the recorded pIC50 belonging to COc1ccc(Cc2nnc(-c3cccc(-c4ccnc(F)c4C)c3)o2)cc1OC [compound 5s] and report it.
A: 4.82

Q: Find the recorded pIC50 belonging to COc1ccc(Cc2nnc(-c3cccc(-c4cnc(F)c(C)c4)c3)o2)cc1OC and report it.
A: 4.73
